The following molecules are shown together with reported pIC50 values.
Test system: SW837;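 further: growth inhibition of SW837 cells, determined with a cell viability assay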
protocolText: cells
Type: functional, cell-based, Homo sapiens
conditionParameters: Homo sapiens, SW837
Description: SANGER: Inhibition of human SW837 cell growth in a cell viability assay.
pIC50: −log10 of the molar value.

O=C(NOCC1CC1)c1ccc(F)c(F)c1Nc1ccc(I)cc1Cl [CI-1040] :: < 5.00
COc1ccc(C2=N[C@@H](c3ccc(Cl)cc3)[C@@H](c3ccc(Cl)cc3)N2C(=O)N2CCNC(=O)C2)c(OC(C)C)c1 [NUTLIN-3] :: < 5.10

Q: Fill in reported pIC50 for this entry: Cc1cnc(-c2cnc(NCCNc3ccc(C#N)cn3)nc2-c2ccc(Cl)cc2Cl)[nH]1 [LADUVIGLUSIB]
A: < 5.59

Q: Fill in reported pIC50 for this entry: C=CCNC1=C2C[C@@H](C)C[C@H](OC)[C@H](O)[C@@H](C)/C=C(\C)[C@H](OC(N)=O)[C@@H](OC)/C=C\C=C(/C)C(=O)NC(=CC1=O)C2=O [TANESPIMYCIN]
A: < 6.00

Q: Fill in reported pIC50 for this entry: COc1cc([C@@H]2c3cc4c(cc3[C@@H](O[C@@H]3O[C@@H]5CO[C@@H](C)O[C@H]5[C@H](O)[C@H]3O)[C@H]3COC(=O)[C@H]23)OCO4)cc(OC)c1O [ETOPOSIDE]
A: < 4.80

Q: Fill in reported pIC50 for this entry: O=C(c1cc(Cc2n[nH]c(=O)c3ccccc23)ccc1F)N1CCN(C(=O)C2CC2)CC1 [OLAPARIB]
A: < 5.30

Q: Fill in reported pIC50 for this entry: Cn1cncc1[C@@](N)(c1ccc(Cl)cc1)c1ccc2c(c1)c(-c1cccc(Cl)c1)cc(=O)n2C [TIPIFARNIB]
A: 5.00

Q: Fill in reported pIC50 for this entry: CN(C)C/C=C/C(=O)Nc1cc2c(Nc3ccc(F)c(Cl)c3)ncnc2cc1O[C@H]1CCOC1 [AFATINIB]
A: < 6.30

Q: Fill in reported pIC50 for this entry: COC(=O)CNC(=O)C(=O)OC
A: 3.07

Q: Fill in reported pIC50 for this entry: CCOc1nc(NC(=O)Cc2cc(OC)ccc2OC)cc(N)c1C#N
A: < 5.00

* * *

Test system: NCI-H1694;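 further: cell viability assay measuring inhibition of growth in human NCI-H1694 cells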
protocolText: cells
Type: functional, cell-based
conditionParameters: Homo sapiens
Description: SANGER: Inhibition of human NCI-H1694 cell growth in a cell viability assay.
pIC50: −log10 of the molar value.
measurementLabel: pIC50

Examples from the recorded data:
CCc1nc(N)nc(N)c1-c1ccc(Cl)cc1 :: < 4.70
CN(c1ncccc1CNc1nc(Nc2ccc3c(c2)CC(=O)N3)ncc1C(F)(F)F)S(C)(=O)=O :: < 5.59

Q: Fill in reported pIC50 for this entry: CCC(=O)N1CCN(c2ccc(-n3c(=O)ccc4cnc5ccc(-c6cnc7ccccc7c6)cc5c43)cc2C(F)(F)F)CC1
A: 6.30

Q: Fill in reported pIC50 for this entry: Cc1ccc(Nc2nccc(N(C)c3ccc4c(C)n(C)nc4c3)n2)cc1S(N)(=O)=O
A: < 5.10

Q: Fill in reported pIC50 for this entry: Cc1cnc(-c2cnc(NCCNc3ccc(C#N)cn3)nc2-c2ccc(Cl)cc2Cl)[nH]1
A: < 5.59

* * *

Test system: RCM-1;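 further: growth inhibition of the RCM-1 line, determined with a cell viability readout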
protocolText: cells
Format: functional, cell-based, Homo sapiens
conditionParameters: Homo sapiens, RCM-1
Description: SANGER: Inhibition of human RCM-1 cell growth in a cell viability assay.
pIC50: −log10 of the molar value.
measurementLabel: pIC50

Examples from the recorded data:
CN(c1ncccc1CNc1nc(Nc2ccc3c(c2)CC(=O)N3)ncc1C(F)(F)F)S(C)(=O)=O [PF-00562271] :: < 5.59
C=CCNC1=C2C[C@@H](C)C[C@H](OC)[C@H](O)[C@@H](C)/C=C(\C)[C@H](OC(N)=O)[C@@H](OC)/C=C\C=C(/C)C(=O)NC(=CC1=O)C2=O [TANESPIMYCIN] :: < 6.00
C=CCc1cccc(/C=N/NC(=O)CN2CCN(Cc3ccccc3)CC2)c1O [PAC-1] :: < 5.59
C[C@]1(O)C[C@@H](c2nc(-c3ccc4ccc(-c5ccccc5)nc4c3)c3c(N)nccn32)C1 [LINSITINIB] :: < 5.59

Q: Fill in reported pIC50 for this entry: CN(Cc1cnc2nc(N)nc(N)c2n1)c1ccc(C(=O)N[C@@H](CCC(=O)O)C(=O)O)cc1 [METHOTREXATE]
A: < 6.70

Q: Fill in reported pIC50 for this entry: CC(=O)O[C@@H]1[C@@H](OC(C)=O)[C@@H](O)[C@H](Oc2c(-c3ccc(O)cc3)oc3cc(O)cc(O)c3c2=O)O[C@H]1C
A: < 5.00

* * *

The following compounds are shown together with reported pIC50 values.
Test system: TE-10;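 further: growth inhibition of TE-10 cells, measured by a cell viability assay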
protocolText: cells
Assay type: functional, cell-based, Homo sapiens
conditionParameters: Homo sapiens, TE-10
Description: SANGER: Inhibition of human TE-10 cell growth in a cell viability assay.
pIC50: −log10 of the molar value.

Examples from the recorded data:
CNC(=O)c1cc(Oc2ccc(NC(=O)Nc3ccc(Cl)c(C(F)(F)F)c3)cc2)ccn1 [SORAFENIB] :: < 5.40
CCC1=C[C@@H]2CN(C1)Cc1c([nH]c3ccccc13)[C@@](C(=O)OC)(c1cc3c(cc1OC)N(C)[C@H]1[C@@](O)(C(=O)OC)[C@H](OC(C)=O)[C@]4(CC)C=CCN5CC[C@]31[C@@H]54)C2 [VINORELBINE] :: 8.44
C[C@]1(O)C[C@@H](c2nc(-c3ccc4ccc(-c5ccccc5)nc4c3)c3c(N)nccn32)C1 [LINSITINIB] :: < 5.59
O=C1N=C(NCc2cccs2)S/C1=C\c1ccc2ncccc2c1 :: < 5.30
O=C(/C=C/c1ccccc1)NC(NC(=S)Nc1cccc2cccnc12)C(Cl)(Cl)Cl (stereo unspecified) [SALUBRINAL] :: < 4.80
CO[C@H]1C[C@@H]2CC[C@@H](C)[C@@](O)(O2)C(=O)C(=O)N2CCCC[C@H]2C(=O)O[C@H]([C@H](C)C[C@@H]2CC[C@@H](O)[C@H](OC)C2)CC(=O)[C@H](C)/C=C(\C)[C@@H](O)[C@@H](OC)C(=O)[C@H](C)C[C@H](C)/C=C/C=C/C=C/1C [SIROLIMUS] :: 8.48
O=C(NOCC1CC1)c1ccc(F)c(F)c1Nc1ccc(I)cc1Cl [CI-1040] :: < 5.00
COC(=O)CNC(=O)C(=O)OC :: 3.20
CCOc1nc(NC(=O)Cc2cc(OC)ccc2OC)cc(N)c1C#N :: < 5.00
CN1CCN(CCOc2cc(OC3CCOCC3)c3c(Nc4c(Cl)ccc5c4OCO5)ncnc3c2)CC1 [SARACATINIB] :: 5.78

Q: Fill in reported pIC50 for this entry: CC1=C2C[C@H]3[C@@H](CC=C4C[C@@H](O)CC[C@@]43C)[C@@H]2CC[C@]12O[C@@H]1C[C@H](C)CN[C@H]1[C@H]2C [CYCLOPAMINE]
A: < 4.80

* * *

Tested on: KYSE-510;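 further: cell viability readout used to measure how strongly growth of the cell line is suppressed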
protocolText: cells
Type: functional, cell-based, Homo sapiens
conditionParameters: Homo sapiens, KYSE-510
Description: SANGER: Inhibition of human KYSE-510 cell growth in a cell viability assay.
pIC50: −log10 of the molar value.
measurementLabel: pIC50

Examples from the recorded data:
CN(c1ncccc1CNc1nc(Nc2ccc3c(c2)CC(=O)N3)ncc1C(F)(F)F)S(C)(=O)=O :: < 5.59
CC(=O)O[C@@]12CO[C@@H]1C[C@H](O)[C@@]1(C)C(=O)[C@H](O)C3=C(C)[C@@H](OC(=O)[C@H](O)[C@@H](NC(=O)OC(C)(C)C)c4ccccc4)C[C@@](O)([C@@H](OC(=O)c4ccccc4)[C@H]21)C3(C)C :: 9.08
O=C(c1cc(Cc2n[nH]c(=O)c3ccccc23)ccc1F)N1CCN(C(=O)C2CC2)CC1 :: < 5.30
Cn1cc(C2=C(c3ccc(Cl)cc3Cl)C(=O)NC2=O)c2ccccc21 :: < 5.00

Q: Fill in reported pIC50 for this entry: Cc1ccc(Nc2nccc(N(C)c3ccc4c(C)n(C)nc4c3)n2)cc1S(N)(=O)=O
A: < 5.10

Q: Fill in reported pIC50 for this entry: O=C(NOCC1CC1)c1ccc(F)c(F)c1Nc1ccc(I)cc1Cl
A: < 5.00

Q: Fill in reported pIC50 for this entry: O=C1N=C(NCc2cccs2)S/C1=C\c1ccc2ncccc2c1
A: < 5.30

* * *

System: EM-2;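 further: growth inhibition of EM-2 cells, read out with a cell viability assay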
protocolText: cells
Format: functional, cell-based
conditionParameters: Homo sapiens
Description: SANGER: Inhibition of human EM-2 cell growth in a cell viability assay.
measurementLabel: IC50

Examples from the recorded data:
Cn1cc(C2=C(c3ccc(Cl)cc3Cl)C(=O)NC2=O)c2ccccc21 [SB-216763] :: > 10 µM
O=C(NOCC1CC1)c1ccc(F)c(F)c1Nc1ccc(I)cc1Cl [CI-1040] :: 2.07 µM

Turning to the following compound.
Q: Please indicate recorded IC50 of O=C1N=C(NCc2cccs2)S/C1=C\c1ccc2ncccc2c1 measured with EM-2.
A: > 5 µM

* * *

Test system: TE-9
protocolText: cells
Assay type: functional, cell-based, Homo sapiens
conditionParameters: Homo sapiens, TE-9
Description: SANGER: Inhibition of human TE-9 cell growth in a cell viability assay.
pIC50: −log10 of the molar value.
measurementLabel: pIC50

Examples from the recorded data:
Cn1cc(C2=C(c3ccc(Cl)cc3Cl)C(=O)NC2=O)c2ccccc21 :: < 5.00
Cn1cncc1[C@@](N)(c1ccc(Cl)cc1)c1ccc2c(c1)c(-c1cccc(Cl)c1)cc(=O)n2C :: < 4.80
COc1ccc(-c2ccc3c(N4CCOC[C@@H]4C)nc(N4CCOC[C@@H]4C)nc3n2)cc1CO :: < 5.70

Turning to the following compound.
Q: Please indicate recorded pIC50 of O=C(/C=C/c1ccccc1)NC(NC(=S)Nc1cccc2cccnc12)C(Cl)(Cl)Cl (centres undefined) measured with TE-9.
A: < 4.80

Where do the numbers come from? From ChEMBL document CHEMBL1201861.
